# target of assay: Ectonucleotide pyrophosphatase/phosphodiesterase family member 1 (Homo sapiens) (UniProt P22413)
# assay overview: Inhibition of human NPP1 in human Saos2 cells assessed as production of p-nitrophenol using pnp-TMP as the substrate […]
# Type: cell-based
# measurement parameters: SAOS-2
Form field: inhibition (one value per entry).
Response body: numeric value in %, unit text excluded.

Answered cases to consult:
Item BP(=O)(OP(=O)(O)CP(=O)(O)OC[C@H]1O[C@@H](n2cnc3c(N)ncnc32)C[C@@H]1O)OP(=O)(O)CP(=O)(O)OC[C@H]1O[C@@H](n2cnc3c(N)ncnc32)C[C@@H]1O has what recorded inhibition?
90

Look at this compound and give its reported inhibition. Nc1ncnc2c1ncn2[C@H]1C[C@H](O)[C@@H](COP(=O)(O)CP(=O)(O)OP(=O)(O)CP(=O)(O)OC[C@H]2O[C@@H](n3cnc4c(N)ncnc43)C[C@@H]2O)O1
80

Look at this compound and give its reported inhibition. BP(=O)(OP(=O)(O)CP(=O)(O)OC[C@H]1O[C@@H](n2cnc3c(N)ncnc32)[C@H](O)[C@@H]1O)OP(=O)(O)CP(=O)(O)OC[C@H]1O[C@@H](n2cnc3c(N)ncnc32)[C@H](O)[C@@H]1O
90

New cases:
Query (compound): Nc1ncnc2c1ncn2[C@@H]1O[C@H](COP(=O)(O)CP(=O)(O)OP(=O)(O)CP(=O)(O)OC[C@H]2O[C@@H](n3cnc4c(N)ncnc43)[C@H](O)[C@@H]2O)[C@@H](O)[C@H]1O ; field requested: inhibition
80

====

The reader will find reported Ki values listed item by item below.
# target of assay: Ectonucleotide pyrophosphatase/phosphodiesterase family member 1 (Homo sapiens)
# assay overview: Inhibition of human NPP1 expressed in COS7 cells assessed as production of p-nitrophenol using pnp-TMP as the substrate after 15 mins […]
# Format: cell-based, COS-7
Param answer (str): number followed by unit.

Past entries and their recorded results:
Query (molecule): BP(=O)(OP(=O)(O)CP(=O)(O)OC[C@H]1O[C@@H](n2cnc3c(N)ncnc32)[C@H](O)[C@@H]1O)OP(=O)(O)CP(=O)(O)OC[C@H]1O[C@@H](n2cnc3c(N)ncnc32)[C@H](O)[C@@H]1O ; field requested: Ki
20 µM

For the molecule shown here, Nc1ncnc2c1ncn2[C@@H]1O[C@H](COP(=O)(O)CP(=O)(O)OP(=O)(O)CP(=O)(O)OC[C@H]2O[C@@H](n3cnc4c(N)ncnc43)[C@H](O)[C@@H]2O)[C@@H](O)[C@H]1O , give the reported Ki.
13 µM

// returns reported Ki for input Nc1ncnc2c1ncn2[C@H]1C[C@H](O)[C@@H](COP(=O)(O)CP(=O)(O)OP(=O)(O)CP(=O)(O)OC[C@H]2O[C@@H](n3cnc4c(N)ncnc43)C[C@@H]2O)O1
51 µM

Now let's try a different one.
Given BP(=O)(OP(=O)(O)CP(=O)(O)OC[C@H]1O[C@@H](n2cnc3c(N)ncnc32)C[C@@H]1O)OP(=O)(O)CP(=O)(O)OC[C@H]1O[C@@H](n2cnc3c(N)ncnc32)C[C@@H]1O , state its recorded Ki.
9 µM

====

# target of assay: Ectonucleotide pyrophosphatase/phosphodiesterase family member 1 (Homo sapiens) (UniProt P22413)
# Sequence (whole entry): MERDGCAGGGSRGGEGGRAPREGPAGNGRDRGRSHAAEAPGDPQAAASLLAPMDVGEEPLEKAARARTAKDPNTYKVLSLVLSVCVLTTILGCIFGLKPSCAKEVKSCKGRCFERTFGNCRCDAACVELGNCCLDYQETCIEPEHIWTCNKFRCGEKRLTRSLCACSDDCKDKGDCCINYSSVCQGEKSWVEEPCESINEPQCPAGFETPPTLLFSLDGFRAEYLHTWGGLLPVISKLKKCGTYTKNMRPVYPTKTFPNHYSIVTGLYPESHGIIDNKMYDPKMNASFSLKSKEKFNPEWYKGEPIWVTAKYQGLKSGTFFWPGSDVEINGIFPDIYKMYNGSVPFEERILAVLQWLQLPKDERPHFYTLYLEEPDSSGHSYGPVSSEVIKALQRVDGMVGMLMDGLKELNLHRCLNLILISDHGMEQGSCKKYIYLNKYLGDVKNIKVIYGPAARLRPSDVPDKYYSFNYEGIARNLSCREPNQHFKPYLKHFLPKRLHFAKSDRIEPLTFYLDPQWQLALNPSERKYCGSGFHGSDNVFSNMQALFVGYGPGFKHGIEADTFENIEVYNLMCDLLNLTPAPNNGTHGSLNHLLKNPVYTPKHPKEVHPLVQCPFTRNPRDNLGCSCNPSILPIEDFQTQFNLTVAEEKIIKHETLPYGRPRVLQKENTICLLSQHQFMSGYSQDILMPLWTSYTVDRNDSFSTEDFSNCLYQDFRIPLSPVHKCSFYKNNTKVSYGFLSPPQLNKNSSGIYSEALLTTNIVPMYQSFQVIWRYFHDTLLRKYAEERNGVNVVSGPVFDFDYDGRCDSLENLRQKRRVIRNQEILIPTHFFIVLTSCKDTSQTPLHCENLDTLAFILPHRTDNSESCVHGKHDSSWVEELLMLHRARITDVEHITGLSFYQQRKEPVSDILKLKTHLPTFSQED
# assay overview: Inhibition of human NPP1 in human HT29 cells assessed as production of p-nitrophenol using pnp-TMP as the substrate […]
# Type: cell-based
# measurement parameters: HT-29
observable: inhibition (%)
Please respond with the number in % and leave the unit unwritten.

As a guide, the following entries are already answered.
Please report the recorded inhibition for Nc1ncnc2c1ncn2[C@@H]1O[C@H](COP(=O)(O)CP(=O)(O)OP(=O)(O)CP(=O)(O)OC[C@H]2O[C@@H](n3cnc4c(N)ncnc43)[C@H](O)[C@@H]2O)[C@@H](O)[C@H]1O .
80

What inhibition value was documented for this molecule, BP(=O)(OP(=O)(O)CP(=O)(O)OC[C@H]1O[C@@H](n2cnc3c(N)ncnc32)C[C@@H]1O)OP(=O)(O)CP(=O)(O)OC[C@H]1O[C@@H](n2cnc3c(N)ncnc32)C[C@@H]1O ?
90

Would you mind telling me what inhibition value was observed for Nc1ncnc2c1ncn2[C@H]1C[C@H](O)[C@@H](COP(=O)(O)CP(=O)(O)OP(=O)(O)CP(=O)(O)OC[C@H]2O[C@@H](n3cnc4c(N)ncnc43)C[C@@H]2O)O1 ?
80

---
Any idea what its inhibition is? The molecule is BP(=O)(OP(=O)(O)CP(=O)(O)OC[C@H]1O[C@@H](n2cnc3c(N)ncnc32)[C@H](O)[C@@H]1O)OP(=O)(O)CP(=O)(O)OC[C@H]1O[C@@H](n2cnc3c(N)ncnc32)[C@H](O)[C@@H]1O
90

====

# target of assay: 5'-nucleotidase (Homo sapiens) (UniProt P21589)
# Sequence (P21589 whole entry): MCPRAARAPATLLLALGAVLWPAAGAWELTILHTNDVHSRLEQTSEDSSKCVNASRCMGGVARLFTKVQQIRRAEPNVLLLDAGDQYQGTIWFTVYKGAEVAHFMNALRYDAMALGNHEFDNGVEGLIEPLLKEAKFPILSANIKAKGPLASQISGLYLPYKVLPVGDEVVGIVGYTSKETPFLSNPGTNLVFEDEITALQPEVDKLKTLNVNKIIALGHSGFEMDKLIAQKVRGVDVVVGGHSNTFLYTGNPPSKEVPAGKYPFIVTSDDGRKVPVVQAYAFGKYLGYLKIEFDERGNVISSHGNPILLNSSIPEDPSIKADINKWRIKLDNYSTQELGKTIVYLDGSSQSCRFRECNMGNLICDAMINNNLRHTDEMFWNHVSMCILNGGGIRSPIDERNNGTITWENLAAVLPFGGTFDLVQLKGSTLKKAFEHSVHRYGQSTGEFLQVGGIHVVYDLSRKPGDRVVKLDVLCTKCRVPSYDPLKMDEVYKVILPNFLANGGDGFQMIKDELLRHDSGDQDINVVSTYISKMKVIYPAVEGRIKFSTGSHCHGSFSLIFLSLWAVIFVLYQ
# assay overview: Inhibition of human Ecto-5'-nucleotidase expressed in COS7 cells assessed as amount of inorganic phosphate released using AMP as the substrate at 100 uM after 15 mins by malachite green reagent method
# measurement parameters: COS-7
The source made the active and inactive calls. No cut-off for these calls is given here.
observable: inhibition

Please give the measured inhibition for this compound: BP(=O)(OP(=O)(O)CP(=O)(O)OC[C@H]1O[C@@H](n2cnc3c(N)ncnc32)[C@H](O)[C@@H]1O)OP(=O)(O)CP(=O)(O)OC[C@H]1O[C@@H](n2cnc3c(N)ncnc32)[C@H](O)[C@@H]1O
inactive

What does the data say about its inhibition? Entry: Nc1ncnc2c1ncn2[C@@H]1O[C@H](COP(=O)(O)CP(=O)(O)OP(=O)(O)CP(=O)(O)OC[C@H]2O[C@@H](n3cnc4c(N)ncnc43)[C@H](O)[C@@H]2O)[C@@H](O)[C@H]1O
90%

Given the compound BP(=O)(OP(=O)(O)CP(=O)(O)OC[C@H]1O[C@@H](n2cnc3c(N)ncnc32)C[C@@H]1O)OP(=O)(O)CP(=O)(O)OC[C@H]1O[C@@H](n2cnc3c(N)ncnc32)C[C@@H]1O , what is its reported inhibition?
inactive

For the compound Nc1ncnc2c1ncn2[C@H]1C[C@H](O)[C@@H](COP(=O)(O)CP(=O)(O)OP(=O)(O)CP(=O)(O)OC[C@H]2O[C@@H](n3cnc4c(N)ncnc43)C[C@@H]2O)O1 , what inhibition is on record?
80%

====

Here, each record is paired with measured Activity data.
# target of assay: Ectonucleotide pyrophosphatase/phosphodiesterase family member 3 (Homo sapiens) (UniProt O14638)
# Sequence (whole entry): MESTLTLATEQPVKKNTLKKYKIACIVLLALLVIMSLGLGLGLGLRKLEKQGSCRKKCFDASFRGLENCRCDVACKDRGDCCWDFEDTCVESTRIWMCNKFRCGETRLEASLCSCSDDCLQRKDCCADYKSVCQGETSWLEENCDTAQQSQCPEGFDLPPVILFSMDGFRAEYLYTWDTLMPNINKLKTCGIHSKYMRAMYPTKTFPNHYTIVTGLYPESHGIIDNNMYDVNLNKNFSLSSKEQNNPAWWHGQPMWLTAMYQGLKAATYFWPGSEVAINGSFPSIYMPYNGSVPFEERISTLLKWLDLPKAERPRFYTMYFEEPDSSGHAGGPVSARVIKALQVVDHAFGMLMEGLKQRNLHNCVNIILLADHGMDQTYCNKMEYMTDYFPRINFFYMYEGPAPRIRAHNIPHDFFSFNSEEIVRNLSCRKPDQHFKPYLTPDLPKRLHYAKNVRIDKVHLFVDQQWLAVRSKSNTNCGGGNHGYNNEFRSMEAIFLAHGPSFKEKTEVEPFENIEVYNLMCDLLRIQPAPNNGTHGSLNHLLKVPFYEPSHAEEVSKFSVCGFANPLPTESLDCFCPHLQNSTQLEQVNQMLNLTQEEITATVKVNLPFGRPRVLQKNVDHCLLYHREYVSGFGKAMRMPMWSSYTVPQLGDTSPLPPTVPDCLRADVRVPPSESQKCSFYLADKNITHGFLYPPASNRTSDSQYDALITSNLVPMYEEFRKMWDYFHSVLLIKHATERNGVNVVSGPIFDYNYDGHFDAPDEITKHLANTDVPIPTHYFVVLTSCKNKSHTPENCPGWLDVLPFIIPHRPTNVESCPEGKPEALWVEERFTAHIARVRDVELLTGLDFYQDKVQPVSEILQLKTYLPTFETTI
# assay overview: Activity of human NPP3 expressed in COS7 cells assessed as production of p-nitrophenol using Ap5A as the substrate at 100 uM after 30 mins by malachite green reagent method
# Format: cell-based
# measurement parameters: COS-7
Respond with the bare value in %.

Reference set, count: 2
Look up Activity for this molecule: Nc1ncnc2c1ncn2[C@@H]1O[C@H](COP(=O)(O)CP(=O)(O)OP(=O)(O)CP(=O)(O)OC[C@H]2O[C@@H](n3cnc4c(N)ncnc43)[C@H](O)[C@@H]2O)[C@@H](O)[C@H]1O
11

May I ask what Activity has been recorded for BP(=O)(OP(=O)(O)CP(=O)(O)OC[C@H]1O[C@@H](n2cnc3c(N)ncnc32)[C@H](O)[C@@H]1O)OP(=O)(O)CP(=O)(O)OC[C@H]1O[C@@H](n2cnc3c(N)ncnc32)[C@H](O)[C@@H]1O ?
12

More entries:
Suppose we examine the molecule BP(=O)(OP(=O)(O)CP(=O)(O)OC[C@H]1O[C@@H](n2cnc3c(N)ncnc32)C[C@@H]1O)OP(=O)(O)CP(=O)(O)OC[C@H]1O[C@@H](n2cnc3c(N)ncnc32)C[C@@H]1O ; what Activity value has been reported?
5.5

Which value of Activity has been reported for Nc1ncnc2c1ncn2[C@H]1C[C@H](O)[C@@H](COP(=O)(O)CP(=O)(O)OP(=O)(O)CP(=O)(O)OC[C@H]2O[C@@H](n3cnc4c(N)ncnc43)C[C@@H]2O)O1 in the records?
5.5

Where these numbers come from: ChEMBL document CHEMBL1799960
